Test system: NCI-H322M lung
methodDescription: NCI-60 one-dose screen, 48 h (100 = growth as untreated, 0 = no growth, -100 = all killed)
assayConditions: 10 µM unless noted
Compounds without any hit were thinned out: in the full panel of roughly 83,000, 20% have a hit.
measurementName: growth (%)

[[record]]
querysmiles = "O=C(Nc1cccc(Cl)c1)Nc1nc2ccc(-c3cccc4ccccc34)cc2s1"
measurementname = "growth"
val = 71.1

[[record]]
querysmiles = "C#C[C@]1(O)CC[C@H]2[C@@H]3CC=C4c5sc(-c6ccccn6)nc5CC[C@]4(C)[C@H]3CC[C@@]21C"
measurementname = "growth"
val = 90.6

[[record]]
querysmiles = "COc1ccc(N2CCN(C(=O)CSc3ccc(-c4nc5cc(C)c(C)cc5[nH]4)cn3)CC2)cc1"
measurementname = "growth"
val = 76.6

[[record]]
querysmiles = "Nc1ccc(-c2nnc(SCc3ccc(O)c4ncccc34)o2)cc1"
measurementname = "growth"
val = -0.446

[[record]]
querysmiles = "CC1=CC(=O)CC(C)(C)[C@@]1(O)/C=C/C(C)=C\\C(=O)O"
measurementname = "growth"
val = -11.3

[[record]]
querysmiles = "O=C1c2c(c3c4cc(O)ccc4oc3c3[nH]c4ccccc4c23)C(=O)N1O"
measurementname = "growth"
val = 2.25

[[record]]
querysmiles = "O=C(CCCCCCN1CC(=O)N2[C@@H](c3cc(F)cc(F)c3)c3[nH]c4ccccc4c3C[C@H]2C1=O)NO"
measurementname = "growth"
val = 75.1

[[record]]
querysmiles = "CCNCCCn1c2c(c3cc(OC)c(OC)cc3c1=O)C(=O)c1cc(OC)cnc1-2"
measurementname = "growth"
val = 33.2

[[record]]
querysmiles = "O=C1c2c(c3c4cc(Br)ccc4[nH]c3c3ccc4ccccc4c23)C(=O)N1CCN1CCNCC1"
measurementname = "growth"
val = 95.6

